system: P. falciparum stage V gametocytes; set-up: BacTiter-Glo ATP luminescence viability of purified stage V gametocytes in 384-well plates, per cent inhibition versus DMSO; details: 48 h, 5 µM; inhibitor
The whole screen tested about 13,000 compounds, of which about 3,200 (25%) showed an effect of 50% or more. This is one part of the list.
molecules and their reported % Inhibition
attributeMeasured: % Inhibition (%)

{"columns": ["molecule", "quantitativeReadout"],
 "data": [
  ["Cc1cc(N2CCOCC2)nc(Nc2ccc(NC(=O)Nc3ccc(F)cc3)cc2)n1", -1.746],
  ["COC(=O)c1cc(NC(=O)Nc2ccc(Cn3ncc(N4CCCNCC4)c(Cl)c3=O)cc2)cc(C(=O)OC)c1", 3.06],
  ["Cc1cc(-c2cc3nc4c(c(=O)n3[nH]2)CCCC4)c(C)o1", 32.39],
  ["CN1CCC(C(=O)Nc2cccc(-c3ccc(-c4nc5ccc(C(F)(F)F)cc5[nH]4)cc3)c2)CC1", 21.59],
  ["Cc1ccc(-c2[nH]n3c(=O)c4c(nc3c2C)CCCC4)cc1", 75.27],
  ["O=C(NC1CCC(CCN2Cc3cccc(C(F)(F)F)c3C2)CC1)c1cccc(-c2cccnc2)c1 (stereo not shown)", -51.73],
  ["CS(=O)(=O)NCCCNCc1ccc(-c2ccc(-c3nc4ccc(F)cc4[nH]3)s2)cc1", 18.31],
  ["O=C(Nc1cccc(-c2nn3ccccc3c2-c2ccnc(Nc3cccc(C(F)(F)F)c3)n2)c1)c1c(F)cccc1F", -78.64],
  ["CNCCNCc1ccc(-c2ccc(-c3nc4ccc(C(F)(F)F)cc4[nH]3)s2)cc1", 66.7],
  ["CN1CCN(c2ccc(-c3cccc(NC(=O)c4cccc([N+](=O)[O-])c4)c3)nn2)CC1", -8.078],
  ["CC[C@H]1CN2CC[C@@H]1C[C@H]2[C@H](O)c1cc(N2CCC(c3ccccc3)CC2)nc2ccc(OC)cc12", 91.21],
  ["CC[C@H]1CN2CC[C@@H]1C[C@H]2[C@H](O)c1cc(N2CCC(O)CC2)nc2ccc(OC)cc12", 17.87],
  ["O=C(Nc1ccc(-c2cccc(-c3nc4ccc(F)cc4[nH]3)c2)cc1)Nc1ccc(F)c(F)c1F", -6.689],
  ["CN1CCN(c2ccc(-c3cccc(NC(=O)c4ccc5ccccc5c4)c3)nn2)CC1", 17.67],
  ["CCOC(=O)CNC(=O)N1CCN(C(=O)NCC(=O)OCC)CC1", -3.887],
  ["O=C(Nc1cccc(CN2CCN(C(=O)c3cccc(Cl)c3)CC2)c1)c1cccs1", 0.1034]
]}

----------
Listed here are compounds together with their documented % Inhibition.
tested on: P. falciparum stage V gametocytes; set-up: BacTiter-Glo ATP luminescence viability of purified stage V gametocytes in 384-well plates, per cent inhibition versus DMSO; details: 48 h, 5 µM; inhibitor
About 3,200 (25%) of roughly 13,000 compounds showed an effect of 50% or more. The list shows a part of the results.
attributeMeasured: % Inhibition (%)

{"columns": ["compound", "quantitativeReadout"],
 "data": [
  ["Cc1ccccc1C1CCN(c2ncc(C(=O)NC3CC3)cc2Cl)CC1 [TCMDC-134609]", 14.1],
  ["CN(CCCN(C)c1cc(NC(=O)c2cccc(F)c2)ccn1)Cc1cccc(O)c1 [TCMDC-134952]", -21.83],
  ["CCOc1ccccc1CCNC(C)Cc1ccc(C(=O)Nc2ccc(CC(C)NCCc3cccc(Cl)c3)cc2)cc1 (centres unmarked) [TCMDC-139805]", 111.8],
  ["CC(=O)Nc1ccc(CNCCc2ccc(NC(=O)c3cc(Cl)cc(Cl)c3)cc2)cc1 [TCMDC-140678]", 2.681],
  ["CC(Cc1ccc(NC(=O)c2ccc(NCCc3ccccc3)cc2)cc1)NCCc1cccc(Cl)c1 (centres unmarked) [TCMDC-139832]", 47.1],
  ["CC(Cc1ccc(NC(=O)c2ccc(CC(C)NCc3ccc(Cl)c(Cl)c3)cc2)cc1)NCCc1cccc(Cl)c1 (centres unmarked) [TCMDC-139806]", 8.931],
  ["Cc1nn(-c2ccccc2)c2nc(-c3ccccc3)cc(C(=O)N3CCOCC3)c12 [TCMDC-124527]", -18.66],
  ["CC(=O)Nc1ccc(CCNC(C)Cc2ccc(C(=O)Nc3ccc(CC(C)NCCc4cccc(Cl)c4)cc3)cc2)cc1 (centres unmarked) [TCMDC-139828]", 108.3]
]}

----------
tested on: P. falciparum stage V gametocytes; parameters: BacTiter-Glo ATP luminescence viability of purified stage V gametocytes in 384-well plates, per cent inhibition versus DMSO; conditions: 48 h, 5 µM; inhibitor
Hit rate of the full screen: of about 13,000 compounds, about 3,200 (25%) showed an effect of 50% or more. The list shows a part of the results.
attributeMeasured: % Inhibition

{"columns": ["compound", "result"],
 "data": [
  ["CC1CCCCC1N(C)C1CCN(CCCNC(=O)C=Cc2ccccc2Cl)CC1 (centres unmarked)", "1.29%"],
  ["O=C(Nc1ccc(Cn2ncc(N3CCCNCC3)c(Cl)c2=O)cc1)Nc1ccc(SC(F)(F)F)cc1", "-14.71%"],
  ["COc1ccc(F)cc1-c1csc(N(c2ccc(F)cc2)C2CCNCC2)n1", "68.19%"],
  ["CCN(CC)c1ccc(C=CC(=O)NCCN2CCC(N(C)C3CCCCC3C)CC2)cc1 (centres unmarked)", "-34.59%"],
  ["Cc1ccc(C)c(NC(=O)NCCNc2ccnc(Nc3ccc(F)cc3)n2)c1", "7.929%"],
  ["O=C(/C=C/c1cccc(C(F)(F)F)c1)NCCCCCN1CCC(c2c[nH]c3ccccc23)CC1", "-27.28%"],
  ["CN(C(=O)/C=C/c1cc(C(F)(F)F)ccc1F)C1CCN(CCCCCNC(=O)/C=C/c2ccc(Cl)c(Cl)c2)CC1", "-46.39%"],
  ["Cc1cc(F)ccc1N(c1nc(-c2cc(Cl)ccc2Cl)cs1)C1CCNC1 (centres unmarked)", "19.89%"],
  ["COc1ccc(N2C(N)=NC(N)=NC2(C)C)cc1", "-3.695%"],
  ["CCc1nc2c(cnn2CC)c(NC2CCOCC2)c1CNC(=O)N1CCOCC1", "94.41%"],
  ["COc1ccc(N(c2nc(-c3cc(Cl)ccc3Cl)cs2)C2CCNCC2)cc1", "103.4%"],
  ["CCN(CC)CCCN(C(=O)Nc1cc(F)cc(F)c1)c1nc(-c2ccc(F)cc2)cs1", "-54.99%"],
  ["Cn1nccc1C(=O)NCCNCc1ccc(-c2ccc(-c3nc4cc(F)ccc4[nH]3)cc2)cc1.O=C(O)C(F)(F)F", "-30.72%"],
  ["CCn1ncc2c(NC3CCOCC3)c(CNC(=O)c3ccnn3C)c(C)nc21", "97.63%"],
  ["CC1CCCCC1N(C)C1CCN(CCCNC(=O)C=Cc2cccc(C(F)(F)F)c2)CC1 (centres unmarked)", "53.92%"],
  ["CC1CN(c2nc(NCCc3ccc(O)cc3)nc(NCc3ccccc3-c3ccc(C(F)(F)F)cc3)n2)CC(C)N1 (centres unmarked)", "26.39%"],
  ["O=C(Nc1ccc(N2CCCCC2)c(Cl)c1)c1ccc(Br)o1", "9.025%"]
]}

----------
test system: P. falciparum stage V gametocytes; design: BacTiter-Glo ATP luminescence viability of purified stage V gametocytes in 384-well plates, per cent inhibition versus DMSO; conditions: 48 h, 5 µM; inhibitor
Hit rate of the full screen: of about 13,000 compounds, about 3,200 (25%) showed an effect of 50% or more. The list shows a part of the results.

{"columns": ["compound", "% Inhibition, %"],
 "data": [
  ["CCN(CC)CCN(Cc1ccc(-c2ccc(C(F)(F)F)s2)cc1)C(=O)Cn1c(CCc2cccc(F)c2F)nc(=O)c2ccccc21", 57],
  ["COc1ccc2nccc([C@@H](O)CN3CCC(NC(=O)c4ccc(Cl)c(Cl)c4)CC3)c2c1", -20.77],
  ["CN(c1ccc(C(=O)N[C@@H](CCC(=O)O)C(=O)O)cc1)S(=O)(=O)c1ccc2nc(N)[nH]c(=O)c2c1", 2.989],
  ["Cc1cc(NC(=O)c2cccs2)ccc1OC1CCN(Cc2ccccc2)C1 (centres unmarked)", -2.762],
  ["COc1ccc(C=C2SC(=N)N(c3ccccc3OC)C2=O)cc1", 37.63],
  ["CCCCOc1ccc(CNCCCCCCNCc2ccc(OCCCC)c3ccccc23)c2ccccc12", 121.9],
  ["CCCCSc1c(CNCCCCCCNCc2ccc3ccccc3c2SCCCC)ccc2ccccc12", 112.9],
  ["Oc1cc2c(cc1CN1CCN(Cc3ccc(Cl)s3)CC1)CCC2", -46.75]
]}

----------
tested on: P. falciparum stage V gametocytes; parameters: BacTiter-Glo ATP luminescence viability of purified stage V gametocytes in 384-well plates, per cent inhibition versus DMSO; conditions: 48 h, 5 µM; inhibitor
Out of some 13,000 compounds screened, about 3,200 (25%) showed an effect of 50% or more. This is one part of the list.
Mark Criterion met for reported % Inhibition of 30% or greater; mark Criterion not met for anything smaller.

{"columns": ["compound", "targetEntity", "qualitativeLabel"],
 "data": [
  ["CC(=O)N(Cc1ccc(-c2ccc(CNCCc3ccccc3)cc2)cc1)C1CCN(Cc2ccccc2)CC1", "P. falciparum stage V gametocytes", "Criterion met"],
  ["CCc1cn(C)c2c(N3CCCC3=O)cc(C(=O)N[C@@H](Cc3ccccc3)[C@H](O)CNC(C)(C)CCCC(C)C)cc12", "P. falciparum stage V gametocytes", "Criterion met"],
  ["CC(C)CNCc1ccc(-c2ccc(CN(C(=O)NCCc3ccccc3)C3CCN(Cc4ccccc4)CC3)cc2)cc1", "P. falciparum stage V gametocytes", "Criterion met"],
  ["COc1cc(NC(=O)c2cccs2)c(C(=O)NCc2ccc(C)cc2)cc1OC", "P. falciparum stage V gametocytes", "Criterion not met"],
  ["CCc1c[nH]c2c(N3CCCS3(=O)=O)cc(C(=O)N[C@@H](Cc3ccccc3)[C@H](O)CNC3CCCCC3)cc12", "P. falciparum stage V gametocytes", "Criterion met"],
  ["CCCCCn1c(Sc2ccc(C#N)c([N+](=O)[O-])c2)nnc1-c1cccs1", "P. falciparum stage V gametocytes", "Criterion met"],
  ["CCc1c[nH]c2c(N3CCCS3(=O)=O)cc(C(=O)N[C@@H](Cc3ccccc3)[C@H](O)CNC(C)(C)c3cccc(C(F)(F)F)c3)cc12", "P. falciparum stage V gametocytes", "Criterion not met"],
  ["CN1CCN(c2cc3c(cc2Cl)CCN3C(=O)Cc2ccc(NC(=O)Nc3cccc4ccccc34)cc2)CC1", "P. falciparum stage V gametocytes", "Criterion not met"],
  ["CC(C)CNCc1cccc(-c2ccc(CN(C(=O)NCCc3ccccc3)C3CCN(Cc4ccccc4)CC3)cc2)c1", "P. falciparum stage V gametocytes", "Criterion met"],
  ["CC(C)CNCc1ccc(-c2cccc(CN(C(=O)NCCc3ccccc3)C3CCN(Cc4ccccc4)CC3)c2)cc1", "P. falciparum stage V gametocytes", "Criterion met"],
  ["O=C(Cc1cnc[nH]1)Nc1cccc(-c2ccc(-c3nc4ccc(C(F)(F)F)cc4[nH]3)cc2)c1", "P. falciparum stage V gametocytes", "Criterion not met"],
  ["CN1CCN(Cc2c(O)ccc3c(=O)c(Oc4ccc(C(C)(C)C)cc4)c(C(F)(F)F)oc23)CC1", "P. falciparum stage V gametocytes", "Criterion not met"],
  ["COC(=O)c1sc(-c2ccc(Cl)cc2)cc1N(CCCN1CCC(N2CCCCC2)CC1)S(=O)(=O)c1ccc(C)cc1", "P. falciparum stage V gametocytes", "Criterion met"],
  ["CCNc1cc(C(=O)N[C@@H](Cc2ccccc2)[C@H](O)CNCCC(C)c2ccccc2)cc(N2CCCC2=O)c1 (some centres unmarked)", "P. falciparum stage V gametocytes", "Criterion not met"]
]}

Provenance of the data: paper PMC4552634
